The measurements presented in this section are drawn from ChEMBL document CHEMBL3885861.

organism: Rattus norvegicus; test: Open TG-GATES - Regimen: Daily Repeat; assay type: toxicity, organism-based, Sprague-Dawley; design: regimen Daily Repeat, gender Male, age 6 weeks; details: in vivo, po, 0 mg/kg, […], tissue Plasma, route gavage, dose level Control, time 28 day
Use condition met when the recorded ALP is no lower than 900 IU/L; use condition not met when it is lower.

These recorded examples may help you get a feel for the data.
compound=Cn1cc[nH]c1=S category_label="condition met"
compound=O=C1CN(/N=C/c2ccc([N+](=O)[O-])o2)C(=O)N1 category_label="condition not met"
compound=C[C@H]1C(=O)O[C@@H]2CCN3CC=C(COC(=O)[C@](C)(O)[C@]1(C)O)[C@H]23 category_label="condition met"
compound="Cc1cccc(C)c1OCC(C)N (centres undefined)" category_label="condition met"
compound=C=C(C)[C@H]1Cc2c(ccc3c2O[C@@H]2COc4cc(OC)c(OC)cc4[C@@H]2C3=O)O1 category_label="condition met"
compound=O=[N+]([O-])c1ccc(O)c([N+](=O)[O-])c1 category_label="condition met"
compound="CCOC(=O)C(C)(C)Oc1ccc(Cl)cc1 [CLOFIBRATE]" category_label="condition not met"
compound=OCCN1CCN(CCCN2c3ccccc3Sc3ccc(C(F)(F)F)cc32)CC1 category_label="condition not met"

State whether the measured ALP reaches 900 IU/L, counting equality as reaching it, for C[C@H]1O[C@H](O[C@H]2[C@H](O)[C@@H](O)[C@@H](O[C@H]3[C@H](O)[C@@H](O)C(O)O[C@@H]3CO)O[C@@H]2CO)[C@H](O)[C@@H](O)[C@@H]1N[C@H]1C=C(CO)[C@@H](O)[C@H](O)[C@H]1O (some centres undefined)
condition met

###

organism: Rattus norvegicus; assay: Open TG-GATES - Regimen: Daily Repeat; type: toxicity, organism-based, Sprague-Dawley; set-up: regimen Daily Repeat, gender Male, age 6 weeks; conditions: in vivo, po, 0 mg/kg, […], route gavage, dose level Control, time 7 day
metric_name: TERMINAL_BW (g)
Kindly provide the numeric value in g only, without the unit symbol.

Check out these entries, answers already filled in.
compound="O=C1CN(/N=C/c2ccc([N+](=O)[O-])o2)C(=O)N1 [NITROFURANTOIN]" metric_name=TERMINAL_BW recorded_number=274
compound="C[C@H]1C(=O)O[C@@H]2CCN3CC=C(COC(=O)[C@](C)(O)[C@]1(C)O)[C@H]23 [MONOCROTALINE]" metric_name=TERMINAL_BW recorded_number=267
compound="C=C(C)[C@H]1Cc2c(ccc3c2O[C@@H]2COc4cc(OC)c(OC)cc4[C@@H]2C3=O)O1 [ROTENONE]" metric_name=TERMINAL_BW recorded_number=254
compound="C[C@H]1O[C@H](O[C@H]2[C@H](O)[C@@H](O)[C@@H](O[C@H]3[C@H](O)[C@@H](O)C(O)O[C@@H]3CO)O[C@@H]2CO)[C@H](O)[C@@H](O)[C@@H]1N[C@H]1C=C(CO)[C@@H](O)[C@H](O)[C@H]1O (some centres undefined) [ACARBOSE]" metric_name=TERMINAL_BW recorded_number=273.8
compound="OCCN1CCN(CCCN2c3ccccc3Sc3ccc(C(F)(F)F)cc32)CC1 [FLUPHENAZINE]" metric_name=TERMINAL_BW recorded_number=262.6

Need TERMINAL_BW, item O=[N+]([O-])c1ccc(O)c([N+](=O)[O-])c1 [2,4-DINITROPHENOL]
271.5

Also, CCOC(=O)C(C)(C)Oc1ccc(Cl)cc1 [CLOFIBRATE] please.
268.6

Also, Cc1cccc(C)c1OCC(C)N (centres undefined) [MEXILETINE] please.
274.3

Also, Cn1cc[nH]c1=S [METHIMAZOLE] please.
252.2
